Reference source for all entries: ChEMBL document CHEMBL1255252

- Tested on: Escherichia coli
- PROCEDURE_TEXT: Antimicrobial activity against Escherichia coli HB101 expressing recombinant plasmid encoded TEM-149 by broth macrodilution method
- Type: functional
PROPERTY_LABEL: MIC (µg/mL)
Write it as a number; the unit µg/mL goes unstated.

Previously resolved entries follow.
CO/N=C(\C(=O)N[C@@H]1C(=O)N2C(C(=O)O)=C(COC(C)=O)CS[C@H]12)c1csc(N)n1 [CEFOTAXIME]    1
Cc1nnc(SCC2=C(C(=O)O)N3C(=O)[C@@H](NC(=O)Cn4cnnn4)[C@H]3SC2)s1 [CEFAZOLIN]    32

Prompt: Tell me reported MIC for CO/N=C(\C(=O)N[C@@H]1C(=O)N2C(C(=O)[O-])=C(C[N+]3(C)CCCC3)CS[C@H]12)c1csc(N)n1 , tested with Escherichia coli.
Response: 8
